System: Uterine Eosinophil Peroxidase (EPO)
procedure.text: Uterine Eosinophil Peroxidase (EPO) Assay on uteri of dosed OVX rats
Type: in vivo, Sprague Dawley rats
measurement.context: female, Sprague Dawley, rat, in vivo, po, 1 mg/kg, 4 days
Where a name gives a salt, the structure may show the parent alone.
measure: Uterine EPO (V. max)
Format: numeric value only, no unit, no commentary.

Exercise: Name the recorded Uterine EPO (V. max) for O=C(Oc1ccc(-c2sc3cc(OC(=O)c4ccccc4)ccc3c2Cc2ccc(OCCN3CCCCC3)cc2)cc1)c1ccccc1 [(s)-Ex21] .
Solution: 2.6

Exercise: Name the recorded Uterine EPO (V. max) for Oc1ccc(-c2sc3cc(O)ccc3c2C(O)c2ccc(OCCN3CCCCC3)cc2)cc1 (stereo not drawn) .
Solution: 4.7

Exercise: Name the recorded Uterine EPO (V. max) for CC(C)(C)C(=O)Oc1ccc(-c2sc3cc(OC(=O)C(C)(C)C)ccc3c2Cc2ccc(OCCN3CCCCC3)cc2)cc1 [(q)-Ex17, Hydrochloride] .
Solution: 3.0

Exercise: Name the recorded Uterine EPO (V. max) for COc1ccc(-c2sc3cc(OC)ccc3c2Cc2ccc(OCCN3CCCCC3)cc2)cc1 [(p)-Ex16, Hydrochloride] .
Solution: 5.4

Exercise: Name the recorded Uterine EPO (V. max) for CCCCS(=O)(=O)Oc1ccc(-c2sc3cc(OS(=O)(=O)CCCC)ccc3c2Cc2ccc(OCCN3CCCCC3)cc2)cc1 [(r)-Ex18, Hydrochloride] .
Solution: 3.5

Next:
Exercise: Name the recorded Uterine EPO (V. max) for Oc1ccc(-c2sc3cc(O)ccc3c2Cc2ccc(OCCN3CCCCC3)cc2)cc1 [(k)-Ex11, Hydrochloride] .
Solution: 4.8

---

Test system: Uterine Eosinophil Peroxidase (EPO)
procedure.text: Uterine Eosinophil Peroxidase (EPO) Assay on uteri of dosed OVX rats
Type: in vivo, Sprague Dawley rats
measurement.context: female, Sprague Dawley, rat, in vivo, po, 10 mg/kg, 4 days
Counter-ions that a name gives are not always drawn.
Catalogue of Uterine EPO (V. max) values
Format: numeric value only, no unit, no commentary.

These recorded examples may help you get a feel for the data.
Exercise: Name the recorded Uterine EPO (V. max) for CCCCS(=O)(=O)Oc1ccc(-c2sc3cc(OS(=O)(=O)CCCC)ccc3c2Cc2ccc(OCCN3CCCCC3)cc2)cc1 [(r)-Ex18, Hydrochloride] .
Solution: 2.8

Exercise: Name the recorded Uterine EPO (V. max) for Oc1ccc(-c2sc3cc(O)ccc3c2Cc2ccc(OCCN3CCCCC3)cc2)cc1 [(k)-Ex11, Hydrochloride] .
Solution: 5.5

Exercise: Name the recorded Uterine EPO (V. max) for Oc1ccc(-c2sc3cc(O)ccc3c2C(O)c2ccc(OCCN3CCCCC3)cc2)cc1 (stereo not drawn) [(b)-Ex2] .
Solution: 14.5

Exercise: Name the recorded Uterine EPO (V. max) for CC(C)(C)C(=O)Oc1ccc(-c2sc3cc(OC(=O)C(C)(C)C)ccc3c2Cc2ccc(OCCN3CCCCC3)cc2)cc1 [(q)-Ex17, Hydrochloride] .
Solution: 2.8

Exercise: Name the recorded Uterine EPO (V. max) for COc1ccc(-c2sc3cc(OC)ccc3c2Cc2ccc(OCCN3CCCCC3)cc2)cc1 [(p)-Ex16, Hydrochloride] .
Solution: 6.2

Next:
Exercise: Name the recorded Uterine EPO (V. max) for O=C(Oc1ccc(-c2sc3cc(OC(=O)c4ccccc4)ccc3c2Cc2ccc(OCCN3CCCCC3)cc2)cc1)c1ccccc1 [(s)-Ex21] .
Solution: 2.3
